B1: PEX5 peptide 108-123 (Peroxisomal targeting signal 1 receptor), 16-mer library wild type / PEX14 Pex14 (PEX14 PEX14, residues 16-84) (parent)
chain 1: GVADLALSENWAQEFL
chain 2: TPGSENVLPREPLIATAVKFLQNSRVRQSPLATRRAFLKKKGLTDEEIDMAFQQSGTAADEPSSLGPAT

Variants of: B1
Assay: proteomic peptide phage display deep mutational scan (ProP-PD DMS): M13 P8 16-mer library selected against immobilised GST-tagged bait for four days (rounds), NGS of the eluted pools per day and pseudo-replica
Details: with PEX14 Pex14 (PEX14 PEX14, residues 16-84); bait immobilised on MaxiSorp plates (10 µg), library pre-cleared on GST, 2 h binding at 4 °C, five washes; one round per day, days 1-4; value from days 2 and 3; scale: average fractional NGS count over selection days 2 and 3
The following variants are listed with their measured screen value values.
Could you keep your reply to the number by itself?

According to the records, this variant chain 1 GVADLALSRNWAQEFL [chain 1 E9R] displays screen value of 0

Next:
According to the records, this variant chain 1 GVADLALSNNWAQEFL [chain 1 E9N] displays screen value of 0.000239

According to the records, this variant chain 1 GVADLALSENWHQEFL [chain 1 A12H] displays screen value of 0.000439
